# Species: Homo sapiens
# assay-explanation: Inhibition of human glucose-6-phosphate dehydrogenase truncated mutant (29 to 511 residues) at 20 uM in presence of NADP and glucose-6-phosphate by diaphorase/resazurin coupled fluorescence assay relative to control
Provide the recorded inhibition for the entries that follow.
Give just the numeric value; % need not be written.

Tell me the measured inhibition of O=C1NC(=O)C(=Cc2ccc(N3CCOCC3)cc2)C(=O)N1 , please.
1.6

What does the data say about its inhibition? Entry: Cc1cc2c(c(O)c1-c1c(C)cc3c(c1O)/C(=C/Nc1c(O)cc(S(=O)(=O)O)c4ccccc14)C(=O)C(O)=C3C(C)C)/C(=C/Nc1c(O)cc(S(=O)(=O)O)c3ccccc13)C(=O)C(O)=C2C(C)C
9.4

Endpoint output: inhibition of Cc1ccc(-n2nc(C)c3c2OC(N)=C(C#N)C3c2ccoc2)cc1 (stereo not given) . Value?
19.9

Quick one: inhibition of Cc1nn(-c2cccc(Cl)c2)c2c1C(c1cc([N+](=O)[O-])ccc1Cl)C(C#N)=C(N)O2 (stereo not given) ?
1.7

Fill in the blank: the reported inhibition of CN1C(=O)C(=Cc2ccc(N(C)C)cc2)C(=O)N(C)C1=O is ____.
10

Look at this molecule and give its reported inhibition. CCOc1ccc([C@@H]2Oc3ccc(Br)cc3C=C2[N+](=O)[O-])cc1OC
8.2

Recorded inhibition of O=C1NC(=O)C(=Cc2ccc3c(c2)OCO3)C(=O)N1 , please.
5.5

Param item = Nc1c(C(=O)c2cccc([N+](=O)[O-])c2)sc2nc(-c3cccnc3)ccc12 ; retrieve measured inhibition.
5.1

# inhibition lookup, item COc1ccc(C(=O)Nc2sc3c(c2C(N)=O)CCCCC3)cc1OC
12.6

Can you look up the measured inhibition of CCOc1ccc([C@@H]2Oc3c(Cl)cc(Cl)cc3C=C2[N+](=O)[O-])cc1OCC for me?
9.3

I have this molecule here, COc1ccc([C@@H]2Oc3ccccc3C=C2[N+](=O)[O-])cc1OC , and I need its recorded inhibition.
8.1

Reported inhibition for Cc1nn(-c2ccccc2)c2c1C(c1ccc(F)cc1)C(C#N)=C(N)O2 (stereo not given) : what is it?
2.7

Tell me the measured inhibition of O=C(O)C1Nc2c(I)cccc2C2C=CCC12 (stereo not given) , please.
19

Query (molecule): COc1ccc(Br)cc1C1C(C#N)=C(N)Oc2c1c(C)nn2-c1ccccc1 (stereo not given) ; field requested: inhibition
14

Returns the measured inhibition for the input molecule. Input: OC1(C#CCN2CCCC[C@@H]2c2cccnc2)CCCCCC1
7.8

Recorded inhibition for O=C1NC(=O)C(=Cc2ccc(Br)s2)C(=O)N1 , please?
14.8

# lookup: inhibition of N#CCCOCCC#CCN1CCCC[C@@H]1c1cccnc1
9.2

May I ask what inhibition has been recorded for COc1ccc(S(=O)(=O)Nc2cccc(Br)c2)c(Cl)c1Cl ?
17.5

What value of inhibition has been recorded for this entry: Cc1cc2c(c(O)c1-c1c(C)cc3c(c1O)/C(=C/Nc1ccc(S(=O)(=O)NC(=N)N)cc1)C(=O)C(O)=C3C(C)C)/C(=C/Nc1ccc(S(=O)(=O)NC(=N)N)cc1)C(=O)C(O)=C2C(C)C
5.8

Entry COc1ccc(Br)cc1/C=C1\C(=O)NC(=O)N(CCC2=CCCCC2)C1=O : reported inhibition = ?
16.3

May I ask what inhibition has been recorded for O=[N+]([O-])C1=Cc2c(ccc3ccccc23)O[C@H]1c1ccc2c(c1)OCO2 ?
8.2

Given the entry O=C1NC(=O)C(=Cc2ccc(O)c(O)c2)C(=O)N1 , report its measured inhibition.
2

Consider the molecule shown here: O=C1C(=Cc2ccco2)C(=O)N(c2ccccc2)C(=O)N1c1ccccc1 What is its recorded inhibition?
6.6

Looking for the measured inhibition of Cc1cc2c(c(O)c1-c1c(C)cc3c(c1O)/C(=C/Nc1cccc4c(N)cccc14)C(=O)C(O)=C3C(C)C)/C(=C/Nc1cccc3c(N)cccc13)C(=O)C(O)=C2C(C)C , can you help?
9.6

Param item = CCOc1ccc([C@@H]2Oc3ccccc3C=C2[N+](=O)[O-])cc1OCC ; retrieve measured inhibition.
4.3

----------
Provide the recorded inhibition for the entries that follow.
# System: Trypanosoma cruzi
# assay-explanation: Inhibition of Trypanosoma cruzi glucokinase at 20 uM using D-glucose as substrate after 1 hr in presence of ATP and […] by resazurin dye based G6PDH-diaphorase coupled fluorescence assay relative to control

Report inhibition for O=C1C(=Cc2ccco2)C(=O)N(c2ccccc2)C(=O)N1c1ccccc1 please.
54.8%

Which inhibition reading was recorded for the molecule COc1ccc(Br)cc1/C=C1\C(=O)NC(=O)N(CCC2=CCCCC2)C1=O ?
59.8%

Give the measured inhibition of CCOc1ccc([C@@H]2Oc3ccc(Br)cc3C=C2[N+](=O)[O-])cc1OC .
43.8%

I am curious: what inhibition value has been reported for O=C1NC(=O)C(=Cc2ccc(Br)s2)C(=O)N1 ?
35.9%

Which inhibition reading was recorded for the molecule COc1ccc([C@@H]2Oc3ccccc3C=C2[N+](=O)[O-])cc1OC ?
41.5%

----------
# assay-explanation: Cytotoxicity against mouse NIH/3T3 cells after 72 hrs by alamar blue assay
# Type: cell-based, NIH3T3
# experimental-setup: read-out: TC50
observable: CC50 at 72 h

Using the record for CCOc1ccc([C@@H]2Oc3ccc(Br)cc3C=C2[N+](=O)[O-])cc1OC , report its CC50 at 72 h.
80.7 µM

Would you kindly share the measured CC50 at 72 h for COc1ccc(S(=O)(=O)Nc2cccc(Br)c2)c(Cl)c1Cl ?
69 µM

Fill blank: measured CC50 at 72 h of the compound CCOc1ccc([C@@H]2Oc3c(Cl)cc(Cl)cc3C=C2[N+](=O)[O-])cc1OCC is ____.
< 100 µM

Can you share its CC50 at 72 h? I mean this compound: Cc1cc2c(c(O)c1-c1c(C)cc3c(c1O)/C(=C/Nc1ccc(S(=O)(=O)NC(=N)N)cc1)C(=O)C(O)=C3C(C)C)/C(=C/Nc1ccc(S(=O)(=O)NC(=N)N)cc1)C(=O)C(O)=C2C(C)C
45.7 µM

----------
# assay-explanation: Inhibition of Trypanosoma cruzi glucokinase using D-glucose as substrate in presence of ATP and […] measured for every 30 secs for 10 mins by resazurin dye based G6PDH-diaphorase coupled fluorescence assay relative to control
Labelling field: enter rule met if recorded IC50 is less than 8 µM. Enter rule not met if it equals or exceeds that cut-off.

hey, is IC50 for O=C1NC(=O)C(=Cc2ccc(Br)s2)C(=O)N1 lower than 8 µM or not?
rule met

Here's an entry: Cc1cc2c(c(O)c1-c1c(C)cc3c(c1O)/C(=C/Nc1ccc(S(=O)(=O)NC(=N)N)cc1)C(=O)C(O)=C3C(C)C)/C(=C/Nc1ccc(S(=O)(=O)NC(=N)N)cc1)C(=O)C(O)=C2C(C)C . Is its IC50 below 8 µM?
rule not met

Is IC50 of O=C1NC(=O)C(=Cc2ccc(N3CCOCC3)cc2)C(=O)N1 strictly below 8 µM?
rule met

Just wondering, is IC50 of Cc1cc2c(c(O)c1-c1c(C)cc3c(c1O)/C(=C/Nc1c(O)cc(S(=O)(=O)O)c4ccccc14)C(=O)C(O)=C3C(C)C)/C(=C/Nc1c(O)cc(S(=O)(=O)O)c3ccccc13)C(=O)C(O)=C2C(C)C below 8 µM?
rule not met

Strictly below 8 µM in IC50? CCOc1ccc([C@@H]2Oc3c(Cl)cc(Cl)cc3C=C2[N+](=O)[O-])cc1OCC
rule met

Given COc1ccc([C@@H]2Oc3ccccc3C=C2[N+](=O)[O-])cc1OC , is recorded IC50 strictly lower than 8 µM?
rule not met

Record CN1C(=O)C(=Cc2ccc(N(C)C)cc2)C(=O)N(C)C1=O : is its IC50 strictly below 8 µM?
rule met

----------
# System: Trypanosoma cruzi
# assay-explanation: Inhibition of Trypanosoma cruzi glucokinase at 20 uM using D-glucose as substrate after 1 hr in presence of ATP and […] by resazurin dye based G6PDH-diaphorase coupled fluorescence assay relative to control
observable: inhibition

Fill in the recorded inhibition for this molecule, with Trypanosoma cruzi as test system: CN1C(=O)C(=Cc2ccc(N(C)C)cc2)C(=O)N(C)C1=O
63.5%

Param readout = inhibition; param system = Trypanosoma cruzi; param query = Cc1cc2c(c(O)c1-c1c(C)cc3c(c1O)/C(=C/Nc1cccc4c(N)cccc14)C(=O)C(O)=C3C(C)C)/C(=C/Nc1cccc3c(N)cccc13)C(=O)C(O)=C2C(C)C ; response: value
66.9%

Tell me reported inhibition for Cc1nn(-c2cccc(Cl)c2)c2c1C(c1cc([N+](=O)[O-])ccc1Cl)C(C#N)=C(N)O2 (centres undefined) , tested with Trypanosoma cruzi.
36.8%

What inhibition appears in the records for this molecule with Trypanosoma cruzi? Nc1c(C(=O)c2cccc([N+](=O)[O-])c2)sc2nc(-c3cccnc3)ccc12
41.8%

----------
# Test system: Trypanosoma cruzi
# assay-explanation: Inhibition of Trypanosoma cruzi glucokinase at 20 uM using D-glucose as substrate after 1 hr in presence of ATP and […] by resazurin dye based G6PDH-diaphorase coupled fluorescence assay relative to control
Exercise: for every item that follows, state its recorded inhibition.
Give a bare numeral; the unit % is implied.

Checklist item: inhibition tested on Trypanosoma cruzi, entry COc1ccc(S(=O)(=O)Nc2cccc(Br)c2)c(Cl)c1Cl , value?
42.8

Under Trypanosoma cruzi: inhibition value of CCOc1ccc([C@@H]2Oc3ccccc3C=C2[N+](=O)[O-])cc1OCC ?
72.9

What reported inhibition corresponds to O=C1NC(=O)C(=Cc2ccc3c(c2)OCO3)C(=O)N1 on Trypanosoma cruzi?
67
